Please go through the items and note down their MRT last.
experiment: In vivo pharmacokinetics, oral; conditions: mouse, plasma; oral, male C57 BL/6 mice; dose 10.00 mg/kg (Compound 1), 12.01 mg/kg (Compound 2); read-out: MRT0-last
Numbers only, in h.

INSERT INTO results (compound, readout_number) VALUES
  ('CC(C)(CO)c1cc(-c2csc(-c3ccc(C(=O)N4CCC(O)CC4)cc3Cl)c2)ccn1 [Compound 2, reference compound]', 6.61);

query: May I ask what MRT last has been recorded for CC(C)(O)c1cc(-c2csc(-c3ccc(C(=O)N4CCC(O)CC4)cc3Cl)c2)ccn1 [Compound 1] ?
result: 7.6

---

tested on: SKMEL5; experiment: Cancer cell growth inhibition, Sulforhodamine B; assay type: cell-based; settings: Homo sapiens, SK-MEL-5, 72 h, SKMEL5 (skin), Non-Responder Cell Lines with IC50 >10 uM or Not Determined
pIC50: −log10 of the molar value.
endpoint-label: pIC50

query: SKMEL5 / pIC50 / CC(C)(O)c1cc(-c2csc(-c3ccc(C(=O)N4CCC(O)CC4)cc3Cl)c2)ccn1 : value?
result: < 5.00

---

test system: MV4-11; test: Cancer cell growth inhibition, Sulforhodamine B; type: cell-based; details: Homo sapiens, MV4-11, 72 h, MV4-11 (hematological), Non-Responder Cell Lines with IC50 >10 uM or Not Determined
pIC50: −log10 of the molar value.
endpoint-label: pIC50

query: Quick one: pIC50 of CC(C)(O)c1cc(-c2csc(-c3ccc(C(=O)N4CCC(O)CC4)cc3Cl)c2)ccn1 ?
result: < 5.00

---

tested on: SKBR3; assay: Cancer cell growth inhibition, Sulforhodamine B; assay type: cell-based; details: Homo sapiens, SK-BR-3, 72 h, SKBR3 (breast), Non-Responder Cell Lines with IC50 >10 uM or Not Determined
pIC50: −log10 of the molar value.
endpoint-label: pIC50

query: What pIC50 appears in the records for this molecule with SKBR3? CC(C)(O)c1cc(-c2csc(-c3ccc(C(=O)N4CCC(O)CC4)cc3Cl)c2)ccn1 [Compound 1]
result: < 5.00

---

experiment: In vivo pharmacokinetics, intravenous; details: male, C57 BL/6, mouse, plasma, iv, male C57 BL/6 mice, dose 2.00 mg/kg (Compound 1), 2.43 mg/kg (Compound 2), read-out: Vss
endpoint-label: Vd (L/kg)
Numbers only, in L/kg.

INSERT INTO results (compound, measurement_units, readout_number) VALUES
  ('CC(C)(O)c1cc(-c2csc(-c3ccc(C(=O)N4CCC(O)CC4)cc3Cl)c2)ccn1', 'L/kg', 0.7);

query: State the recorded Vd for this entry: CC(C)(CO)c1cc(-c2csc(-c3ccc(C(=O)N4CCC(O)CC4)cc3Cl)c2)ccn1 [Compound 2, reference compound]
result: 2.32

Value source: patent US20220356170A1
